The reported measurements were obtained from PubChem BioAssay AID2060619.

test system: 323965-272-R-J2-PDC complex spheroid viability; assay: Anticancer human tumor 323965-272-R-J2-PDC patient-derived pancreatic carcinoma cell line growth inhibition [CLK]; settings: curve of first compound; second compound 10 µM;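 further: spheroids exposed to agents for seven days before readout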

Compound: CC1COCCN1c1cc(C2(S(C)(=N)=O)CC2)nc(-c2ccnc3[nH]ccc23)n1 (configuration not stated) + CN1CCN(c2cc(C(=O)Nc3cc4cc(-c5cnn(C)c5)ccc4cn3)ccn2)CC1
IC50: < 31.6 nM
--
Compound: Nc1ccn(C2OC(CO)C(O)C2(F)F)c(=O)n1 (configuration not stated) + CN1CCN(c2cc(C(=O)Nc3cc4cc(-c5cnn(C)c5)ccc4cn3)ccn2)CC1
IC50: < 31.6 nM
--
Compound: COc1cccc2c1C(=O)c1c(O)c3c(c(O)c1C2=O)CC(O)(C(=O)CO)CC3OC1CC(N)C(O)C(C)O1 (configuration not stated) + CNC(=O)c1ccc(Nc2nc(OC3CCCC3)c3c(-c4ccc5nc(C)oc5c4)c[nH]c3n2)c(OC)c1
IC50: < 31.6 nM
--
Compound: CC1(C)CCC(CN2CCN(c3ccc(C(=O)NS(=O)(=O)c4ccc(NCC5CCOCC5)c([N+](=O)[O-])c4)c(Oc4cnc5[nH]ccc5c4)c3)CC2)=C(c2ccc(Cl)cc2)C1 + CNC(=O)c1ccc(Nc2nc(OC3CCCC3)c3c(-c4ccc5nc(C)oc5c4)c[nH]c3n2)c(OC)c1
IC50: < 31.6 nM
--
Compound: C#Cc1c(F)ccc2cc(O)cc(-c3ncc4c(N5CC6CCC(C5)N6)nc(OCC56CCCN5CC(F)C6)nc4c3F)c12 (configuration not stated) + CN1CCN(c2cc(C(=O)Nc3cc4cc(-c5cnn(C)c5)ccc4cn3)ccn2)CC1
IC50: < 31.6 nM
--
Compound: O=C(c1cc(Cc2n[nH]c(=O)c3ccccc23)ccc1F)N1CCN(C(=O)C2CC2)CC1 + CN1CCN(c2cc(C(=O)Nc3cc4cc(-c5cnn(C)c5)ccc4cn3)ccn2)CC1
IC50: < 31.6 nM
--
Compound: Nc1ccccc1NC(=O)c1ccc(CNC(=O)OCc2cccnc2)cc1 + CN1CCN(c2cc(C(=O)Nc3cc4cc(-c5cnn(C)c5)ccc4cn3)ccn2)CC1
IC50: < 31.6 nM
--
Compound: C=CC(=O)Nc1cc(Nc2nccc(-c3cn(C)c4ccccc34)n2)c(OC)cc1N(C)CCN(C)C + CN1CCN(c2cc(C(=O)Nc3cc4cc(-c5cnn(C)c5)ccc4cn3)ccn2)CC1
IC50: < 0.949 nM
--
Compound: CC(CO)NC(=O)c1cc(-c2ccc(Cl)cc2)nn(-c2cnn(C)c2)c1=O (configuration not stated) + CN1CCN(c2cc(C(=O)Nc3cc4cc(-c5cnn(C)c5)ccc4cn3)ccn2)CC1
IC50: < 31.6 nM
--
Compound: CC(Nc1ccc2c(c1)OCCn1cc(N3C(=O)OCC3C(F)F)nc1-2)C(N)=O (configuration not stated) + CN1CCN(c2cc(C(=O)Nc3cc4cc(-c5cnn(C)c5)ccc4cn3)ccn2)CC1
IC50: < 31.6 nM
--
Compound: O=C(c1cc(Cc2n[nH]c(=O)c3ccccc23)ccc1F)N1CCN(C(=O)C2CC2)CC1 + CNC(=O)c1ccc(Nc2nc(OC3CCCC3)c3c(-c4ccc5nc(C)oc5c4)c[nH]c3n2)c(OC)c1
IC50: < 31.6 nM
--
Compound: CCCS(=O)(=O)Nc1ccc(F)c(C(=O)c2c[nH]c3ncc(-c4ccc(Cl)cc4)cc23)c1F + CNC(=O)c1ccc(Nc2nc(OC3CCCC3)c3c(-c4ccc5nc(C)oc5c4)c[nH]c3n2)c(OC)c1
IC50: < 31.6 nM
--
Compound: COc1cccc2c1C(=O)c1c(O)c3c(c(O)c1C2=O)CC(O)(C(=O)CO)CC3OC1CC(N)C(O)C(C)O1 (configuration not stated) + CN1CCN(c2cc(C(=O)Nc3cc4cc(-c5cnn(C)c5)ccc4cn3)ccn2)CC1
IC50: < 31.6 nM
--
Compound: COc1ccc([C@@H](O)c2cc(-c3ncnc4cc(N5CCOCC5)ccc34)c(F)cc2Cl)nn1 + CN1CCN(c2cc(C(=O)Nc3cc4cc(-c5cnn(C)c5)ccc4cn3)ccn2)CC1
IC50: < 31.6 nM
--
Compound: COC1C=CCC(C)C(C)S(=O)(=O)NC(=O)c2ccc3c(c2)N(CC2CCC21)CC1(CCCc2cc(Cl)ccc21)CO3 (configuration not stated) + CN1CCN(c2cc(C(=O)Nc3cc4cc(-c5cnn(C)c5)ccc4cn3)ccn2)CC1
IC50: < 31.6 nM
--
Compound: C=CC(=O)N1CCN(c2nc(=O)n(-c3c(C)ccnc3C(C)C)c3nc(-c4c(O)cccc4F)c(F)cc23)C(C)C1 (configuration not stated) + CN1CCN(c2cc(C(=O)Nc3cc4cc(-c5cnn(C)c5)ccc4cn3)ccn2)CC1
IC50: < 31.6 nM
--
Compound: NC(=O)C(=Cn1cnc(-c2cc(C(F)(F)F)cc(C(F)(F)F)c2)n1)c1cncnc1 + CN1CCN(c2cc(C(=O)Nc3cc4cc(-c5cnn(C)c5)ccc4cn3)ccn2)CC1
IC50: < 9.49 nM
--
Compound: COc1c(OCCCN2CCOCC2)ccc2c3n(c(=NC(=O)c4cnc(N)nc4)nc12)CCN3 + CN1CCN(c2cc(C(=O)Nc3cc4cc(-c5cnn(C)c5)ccc4cn3)ccn2)CC1
IC50: < 3.16 nM
--
Compound: NC(=O)C(=Cn1cnc(-c2cc(C(F)(F)F)cc(C(F)(F)F)c2)n1)c1cncnc1 + CNC(=O)c1ccc(Nc2nc(OC3CCCC3)c3c(-c4ccc5nc(C)oc5c4)c[nH]c3n2)c(OC)c1
IC50: < 9.49 nM
--
Compound: CC(C)CC(NC(=O)C(Cc1ccccc1)NC(=O)c1cnccn1)B(O)O (configuration not stated) + CNC(=O)c1ccc(Nc2nc(OC3CCCC3)c3c(-c4ccc5nc(C)oc5c4)c[nH]c3n2)c(OC)c1
IC50: 1.02 nM
--
Compound: Cn1ncnc1[C@H]1c2n[nH]c(=O)c3cc(F)cc(c23)N[C@@H]1c1ccc(F)cc1 + CNC(=O)c1ccc(Nc2nc(OC3CCCC3)c3c(-c4ccc5nc(C)oc5c4)c[nH]c3n2)c(OC)c1
IC50: < 0.316 nM
--
Compound: Nc1ccn(C2OC(CO)C(O)C2(F)F)c(=O)n1 (configuration not stated) + CNC(=O)c1ccc(Nc2nc(OC3CCCC3)c3c(-c4ccc5nc(C)oc5c4)c[nH]c3n2)c(OC)c1
IC50: < 31.6 nM
